For each of the compounds below, state its GSH [H2S] at peaking time.
Test: Methylene blue experiment for H2S release in PBS buffer in presence of cysteine or GSH
Assay type: physicochemical
Test context: PBS buffer pH 7.4; donor 150 μM; 1.5 mM GSH; experimental period 3 hours
Please state the figure in µM; there is no need to write the unit.

Retrieve GSH [H2S] at peaking time measured for O=C(NSC(=O)c1ccc(C(F)(F)F)cc1)c1ccccc1 [Compound 4] and print it. 59.5

Retrieve GSH [H2S] at peaking time measured for O=C(NSC(=O)c1ccccc1)c1cccc(Cl)c1 [Compound 25] and print it. 84.3

Retrieve GSH [H2S] at peaking time measured for Cc1ccccc1C(=O)NSC(=O)c1ccccc1 [Compound 24] and print it. 130.5

Retrieve GSH [H2S] at peaking time measured for O=C(NSC(=O)c1ccc(F)cc1)c1ccccc1 [Compound 3] and print it. 122.6

Retrieve GSH [H2S] at peaking time measured for `O=C(NSC(=O)c1ccccc1)Nc1ccccc1` and print it. 23.4

Retrieve GSH [H2S] at peaking time measured for O=C(NSC(=O)C1CCCCC1)c1ccccc1 [Compound 16] and print it. 81.9

Retrieve GSH [H2S] at peaking time measured for O=C(NSC(=O)c1ccccc1)c1ccc(F)cc1 [Compound 26] and print it. 104.1

Retrieve GSH [H2S] at peaking time measured for CC(C(=O)SNC(=O)c1ccccc1)c1ccccc1 (centres unmarked) [Compound 31] and print it. 103.8

Retrieve GSH [H2S] at peaking time measured for COC(=O)C(CSSC(=O)c1ccccc1)NC(=O)c1ccccc1 (centres unmarked) [Compound 33] and print it. 18.3

Retrieve GSH [H2S] at peaking time measured for CCCC(=O)NSC(=O)c1ccccc1 [Compound 29] and print it. 98.9

Retrieve GSH [H2S] at peaking time measured for CC(C)(C)C(=O)SNC(=O)c1ccccc1 [Compound 21] and print it. 96.6

Data provenance is patent US9096504B2.
